# System: Normal human foreskin fibroblasts (HFF)
# assay_conditions: read-out: HFF (EC50 Ave) ML; HFF, ML (monolayer)
pEC50: −log10 of the molar value. Primed or numbered codes have the meaning given here. * marks the point of attachment. 10Ca = carbamate linkage conjugating the peptide-PEG to paclitaxel at C10; 10Ca‑PXL = paclitaxel conjugated at C10 via a carbamate; 3Am‑VBL = vinblastine (VBL) conjugate; 3′Alk‑MAL(9) = not defined here; PEG(13)″ = PEG(13) linker; PEG(11) = PEG(11) linker; PEG(11)″ = PEG11 linker; 3Am = not defined here; Cbz = O=C(OCc1ccccc1)*; PEG(13) = PEG13 linker; Boc = CC(C)(C)OC(=O)*; Piv = CC(C)(C)C(=O)*; OBn = c1ccc(CO*)cc1; DOX = doxorubicin; VBL = vinblastine; PXL = paclitaxel
attribute_measured: pEC50

[[record]]
substance = "Ac-YIYGSFS-PEG(11)-3Am-VBL (N-acetyl; PEG(11) linker; vinblastine conjugate)"
result = "< 7.00"


[in] Entry CBz-GRPRTSSFAEG-3Am-VBL (Cbz-GRPRTSSFAEG-{3Am-VBL}; reading uncertain; also: printed as CBz-GRPRTSSFAEG-3Am-VBL) has what pEC50?
[out] < 7.00

[in] Repeat for the following substance: BOC-RPRTSSF-PEG(11)-3Am-VBL (N-BOC; PEG(11) linker; vinblastine conjugate)
[out] 7.00 to 7.70

[in] Repeat for the following substance: CBz-RPRTSSF-PEG(29)-3Am-VBL (N-CBz; PEG(29) linker; vinblastine conjugate)
[out] < 7.00

[in] Repeat for the following substance: Pv-GRPRAAAFAEG-PEG(13)-10Ca-PXL (Piv-GRPRAAAFAEG-{PEG(13)-10Ca‑PXL}; also: 2 TFA salt)
[out] < 7.00

[in] Repeat for the following substance: Pv-E(DMAB)YIYGSFR-PEG(11)-3Am-VBL (EYIYGSFR)
[out] < 7.00

[in] Repeat for the following substance: Pv-E(Bzl)YIYGSFK(CBz)-PEG(13)-10Ca-PXL (Piv-E(OBn)YIYGSFK(Cbz)-{PEG(13)″-10Ca-PXL}; also: TFA salt)
[out] < 7.00

[in] Repeat for the following substance: Ph(C═O)-RPRTSSF-PEG(11)-3Am-VBL (N-benzoyl; PEG(11) linker; vinblastine conjugate)
[out] 7.00 to 7.70

[in] Repeat for the following substance: Pv-YIYGSFR-PEG(11)-3Am-VBL (Piv-YIYGSFR-{PEG(11)-3Am‑VBL})
[out] < 7.00

[in] Repeat for the following substance: Ac-RPRTSSF-PEG(13)-10Ca-PXL (N-acetyl; PEG(13) linker; paclitaxel conjugate)
[out] < 7.00

[in] Repeat for the following substance: BOC-E(Bzl)YIFGSFK(BOC)-PEG(11)-3Am-VBL
[out] < 7.00

[in] Repeat for the following substance: Pv-EYIYGSFR-PEG(11)-3Am-VBL (Piv-EYIYGSFR-{PEG(11)-3Am‑VBL})
[out] < 7.00

[in] Repeat for the following substance: Pv-RLVAYEGYV-PEG(11)-3Am-VBL (Piv-RLVAYEGYV-{PEG(11)-3Am‑VBL})
[out] < 7.00

[in] Repeat for the following substance: CBz-YIYGSFK(CBz)-PEG(11)-3Am-VBL (Cbz-YIYGSFK(Cbz)-{PEG(11)-3Am-VBL}; reading uncertain; also: printed as CBz-YIYGSFK(CBz)-PEG(11)-3Am-VBL)
[out] 7.00 to 7.70

[in] Repeat for the following substance: BOC-RPRTSSF-PEG(13)-10Ca-PXL (N-BOC; PEG(13) linker; paclitaxel conjugate)
[out] 7.00 to 7.70

[in] Repeat for the following substance: Ac-EYIYGSFK-3′Alk-MAL(9)-DOX (Ac-EYIYGSFK-{3′Alk‑MAL(9)-DOX}; reading uncertain; also: printed as Ac-EYIYGSFK-3′Alk-MAL(9)-DOX)
[out] < 7.00

[in] Repeat for the following substance: Ac-YIFGSFK(BOC)-PEG(11)-3Am-VBL (Ac-YIFGSFK(Boc)-{PEG(11)″-3Am-VBL}; reading uncertain; also: printed as Ac-YIFGSFK(BOC)-PEG(11)-3Am-VBL)
[out] < 7.00

[in] Repeat for the following substance: CBz-E(Bzl)YIFGSFK-PEG(11)-3Am-VBL (CBz-Glu(Bzl) N-terminal; PEG(11); vinblastine conjugate)
[out] < 7.00

[in] Repeat for the following substance: BOC-YIYGSFK(BOC)-PEG(11)-3Am-VBL (N-BOC; BOC side chain; PEG(11); vinblastine conjugate)
[out] < 7.00

[in] Repeat for the following substance: Pv-GRPRTSSFAEG-3Am-VBL (Piv-GRPRTSSFAEG-{3Am‑VBL}; also: 2 TFA salt)
[out] < 7.00

[in] Repeat for the following substance: Ac-YIYGSFR-PEG(13)-10Ca-PXL (N-acetyl; PEG(13) linker; paclitaxel conjugate)
[out] < 7.00

[in] Repeat for the following substance: Pv-RSRTSSF-PEG(11)-3Am-VBL (Piv-RSRTSSF-{PEG(11)-3Am‑VBL}; also: 2 TFA salt)
[out] < 7.00
